Target: full length (FL) LXRα (Homo sapiens)
Construct: the full length (FL) proteins of LXRα (amino acids 1-447); NP005684; expressed in transfected cells; host or cells: HEK293
Sequence (Q13133 whole entry, the tested form may be a part): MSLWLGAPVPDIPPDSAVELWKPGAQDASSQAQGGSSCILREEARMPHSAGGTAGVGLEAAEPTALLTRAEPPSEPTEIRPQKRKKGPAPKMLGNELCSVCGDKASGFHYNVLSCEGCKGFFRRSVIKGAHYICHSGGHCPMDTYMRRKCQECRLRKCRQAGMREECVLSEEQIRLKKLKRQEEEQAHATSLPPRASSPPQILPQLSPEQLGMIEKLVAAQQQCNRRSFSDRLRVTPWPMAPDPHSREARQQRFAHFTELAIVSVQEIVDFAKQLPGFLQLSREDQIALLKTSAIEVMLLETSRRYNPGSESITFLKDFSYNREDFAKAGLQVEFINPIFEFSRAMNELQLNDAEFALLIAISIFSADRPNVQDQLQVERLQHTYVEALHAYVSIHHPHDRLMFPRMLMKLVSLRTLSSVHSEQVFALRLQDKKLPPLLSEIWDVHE
Assay: LXR Gal4 reporter transient transfection assay (FL-M2H Gal4α)
Type: cell-based
Details: HEK293 cells, full length LXRα; read-out: FL-M2H Gal4α (EC50 range)
pEC50: −log10 of the molar value.
Quick reference for pEC50 among some compounds

| compound | tested on | pEC50 |
| --- | --- | --- |
| N#Cc1cccc(C#N)c1-c1c(-c2cccc(-c3ccc(C(=O)O)cc3F)c2)n(S(=O)(=O)C2CCC(C(F)(F)F)CC2)c2ccc(F)cc12 (stereo not drawn) | full length (FL) LXRα (Homo sapiens) | > 7.00 |
| Cc1ccc(S(=O)(=O)n2c(-c3cccc(N4[C@@H]5CC[C@H]4C[C@@H](C(=O)O)C5)c3)c(-c3ccsc3C#N)c3cc(F)ccc32)cc1 | full length (FL) LXRα (Homo sapiens) | > 7.00 |

# context switch: different compound, same pEC50
Fill blank: measured pEC50 of the compound N#Cc1cccc(C#N)c1-c1c(-c2cccc(-c3ccc(C(=O)NCCS(=O)(=O)O)cc3Cl)c2)n(S(=O)(=O)c2ccc(C(F)F)cc2)c2ccc(F)cc12 is ____.
> 7.00
